# maps each entry to its z-score
- experiment.notes: mitochondrial membrane potential change in A549 cells, profiling panel, cell-based, JC-1 fluorescence, basal, 24 h, 100 nL (AID 1138);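 further: A549 lung adenocarcinoma cells under basal conditions with no added stimulus; test concentration not given here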
- condition.context: higher = more signal
// no unit, no text: just the number

Solved entries:
[Q] Fill in z-score for record CCOC(=O)C1=CC[C@@H](c2ccccc2)N(S(=O)(=O)c2ccc(C)cc2)[C@H]1c1cccc(OC)c1
[A] 1.96

[Q] Fill in z-score for record [N-]=[N+]=Nc1ccccc1C[C@@]1(C(=O)O)N=C(c2ccc(OCCCO)cc2)O[C@@H]1c1ccccc1N=[N+]=[N-]
[A] 0.125

[Q] Fill in z-score for record O=c1cccc(-c2ccco2)o1
[A] -0.262

[Q] Fill in z-score for record CCCCCCCCCCC(O)C1C=CC2C(=O)N(C)C(=O)C2N1Nc1cc(OC)c(OC)c(OC)c1 (configuration not stated)
[A] 1.06

[Q] Fill in z-score for record COC(=O)C(CC#Cc1ccc2c(c1)[C@]1(C(=O)N2)[C@H](C(=O)Nc2nc3ccccc3s2)[C@H]2C(=O)O[C@H](c3ccccc3)[C@H](c3ccccc3)N2[C@@H]1c1ccc(OCCO)cc1)C(=O)OC
[A] -1.94

---
[Q] Fill in z-score for record CN(C)CCCNC(=O)[C@@H]1c2ccccc2C(=O)N(C2CCCCC2)[C@H]1c1ccc(CO)cc1
[A] 0.494

[Q] Fill in z-score for record CCOC(=O)C[C@H]1[C@H](OC(=O)c2ccc(-c3ccccc3)cc2)[C@@H](NC(=O)CC(C)C)c2cc(OCCCO)ccc2N1C(=O)c1ccccc1
[A] 1.23

====

# maps each entry to its z-score
- target.or.system: NADPH oxidase 2 (Homo sapiens)
- experiment.notes: NOX2-dependent H2O2 signal modulators, primary screen, NOX inhibitor project, cell-based, HEK293-NOX2, PMA-stimulated, Amplex Red fluorescence (AID 1159); further: test concentration not given here
- condition.context: 45 min, higher = more signal, called active from +8 up or from −8 down
// no unit, no text: just the number

Solved entries:
[Q] // output z-score; input O=C1C2C=CC(C(O)c3ccco3)N(Nc3ccccc3)C2C(=O)N1c1ccccc1 (stereo not given) ; system NADPH oxidase 2 (Homo sapiens)
[A] -1.61

[Q] // output z-score; input CO[C@H]1O[C@H](CO)[C@@H](OC(=O)Nc2ccc(C#N)cc2)[C@@H]2OC(=O)[C@H](Cc3cccc(Br)c3)C/C=C/C[C@@H](Cc3cccc(Br)c3)C(=O)O[C@@H]12 ; system NADPH oxidase 2 (Homo sapiens)
[A] -1.59

[Q] // output z-score; input C=C[C@@H](C)[C@H](O)c1ccc(OCCO)cc1 ; system NADPH oxidase 2 (Homo sapiens)
[A] -0.613

[Q] // output z-score; input CC1CC/C=C\[C@H]2OC34C=CCN(CCN5CCOCC5)C(=O)[C@H]3N(C(C)CO)C(=O)[C@@H]4C2C(=O)O1 (stereo not given in full) ; system NADPH oxidase 2 (Homo sapiens)
[A] 0.801

[Q] // output z-score; input CO[C@H]1O[C@H](CO)[C@@H](OC(=O)c2ccc(Br)cc2)[C@@H]2OC(=O)[C@H](Cc3ccccc3)C/C=C/C[C@@H](Cc3ccccc3)C(=O)O[C@@H]12 ; system NADPH oxidase 2 (Homo sapiens)
[A] -4.18

---
[Q] // output z-score; input COCCOC(=O)N1C(=O)[C@@]2(c3ccccc31)[C@H](c1ccccc1OCCO)N1[C@H](c3ccccc3)[C@H](c3ccccc3)OC(=O)[C@H]1[C@@H]2C(N)=O ; system NADPH oxidase 2 (Homo sapiens)
[A] 1.88

[Q] // output z-score; input O=C(N1CCOCC1)[C@@]1(CCS(=O)(=O)c2ccccc2)N=C(c2ccc(OCCCO)cc2)O[C@H]1c1ccccc1 ; system NADPH oxidase 2 (Homo sapiens)
[A] 0.386

====

- target.or.system: Calmodulin-1 (Homo sapiens) (UniProt P0DP23)
- experiment.notes: CALM1 binders on microarrays, EGTA buffer, profiling panel, biochemical, small-molecule microarray, Cy5-labelled CALM1 (AID 1111);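 further: labelled calmodulin applied in Tris saline Tween buffer holding calcium plus EGTA and DTT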
- condition.context: Cy5-CALM1 binding fluorescence, higher = more signal
# maps each entry to its composite z-score
// no unit, no text: just the number

[Q] Fill in composite z-score for record CN(C)C(=O)[C@@]1(CCC(=O)OC(C)(C)C)N=C(c2ccc(OCCCO)cc2)O[C@H]1c1ccccc1CN=[N+]=[N-]
[A] 1.18

[Q] Fill in composite z-score for record C=CCN1C(=O)[C@]2(O[C@H](CCO)[C@@H]([Si](C)(C)c3ccc(OC)cc3)[C@@H]2C)c2cc(NC(=O)c3ccc(OC)cc3)ccc21
[A] 0.0503

---
[Q] Fill in composite z-score for record O=C1C2C=CC(C(O)c3cccc(O)c3)N(Nc3ccccc3)C2C(=O)N1c1ccccc1 (stereo unspecified)
[A] 0.46

[Q] Fill in composite z-score for record CN1C=C(C(=O)OCCS(C)(=O)=O)C(C(=O)OCCS(C)(=O)=O)=CC(c2ccc(CO)cc2)=CC1c1cccs1 (stereo unspecified)
[A] -0.165

[Q] Fill in composite z-score for record [N-]=[N+]=NC[C@H](Cc1ccccc1)NC(=O)c1ccccc1
[A] -0.334

[Q] Fill in composite z-score for record CCN(CC)c1ccc(N2CC=CC34O[C@@H]5/C=C\CCC(C)OC(=O)C5[C@H]3C(=O)N(C(C)CO)[C@@H]4C2=O)cc1 (stereo partly specified)
[A] -0.847

[Q] Fill in composite z-score for record CCCCCCCCCCC(O)C1C=CC2C(=O)N(C)C(=O)C2N1Nc1cc(OC)c(OC)c(OC)c1 (stereo unspecified)
[A] 1.82

[Q] Fill in composite z-score for record CC(=O)NCCCC[C@@H]1NC(=O)[C@@H]2C[C@H](C(=O)NCCCCCCN)[C@H](c3cccc(OCCO)c3)N2C1=O
[A] 1.47

[Q] Fill in composite z-score for record CCCCCN1CC=CC23O[C@@H]4/C=C\CCC(C)OC(=O)C4[C@H]2C(=O)N(CCCCCCO)[C@@H]3C1=O (stereo partly specified)
[A] -0.384

====

# maps each entry to its composite z-score
- Test system: Noggin (protein binding on small-molecule microarray)
- experiment.notes: Noggin binders on small-molecule microarray, primary screen, biochemical, 635/667 nm fluorescence (AID 1095);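 further: score merges 667 nm feature fluorescence with signal to noise over triplicate slides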
- condition.context: 635 nm fluorescence, higher = more signal
// no unit, no text: just the number

Solved entries:
[Q] Fill in composite z-score for record COCC(=C=CC[C@@H](O)c1ccc(OCCO)cc1)CCO
[A] 0.913

[Q] Fill in composite z-score for record C=CCC(OC(C)=O)[C@@H]1[C@@H](N(Cc2ccc(-c3cccc(C(F)(F)F)c3)o2)C(=O)Cc2ccc(OC)cc2)c2cc(OCCCO)ccc2N1C(=O)Cc1ccc2ccccc2c1 (stereo not given in full)
[A] -0.621

[Q] Fill in composite z-score for record Cc1ccc([C@H]2C(C(=O)O)=C[C@@H](C(C)(C)C)N2S(=O)(=O)c2ccc(C)cc2)cc1
[A] 0.101

Please turn your attention to the following entry.
[Q] Fill in composite z-score for record CO[C@H]1O[C@H](CO)[C@@H](OC(=O)c2ccc(Br)cc2)[C@@H]2OC(=O)[C@H](Cc3ccccc3)C/C=C/C[C@@H](Cc3ccccc3)C(=O)O[C@@H]12
[A] 0.413

====

- experiment.notes: binders of probe aFGF2 on microarray, primary screen, stem cell growth factor project, biochemical, small-molecule microarray, fluorescence 635/667 (AID 1067);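 further: measures binding of biotinylated aFGF2 protein to printed compounds on slides; z-score merges feature fluorescence and signal-to-noise across triplicate slides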
- condition.context: higher = more signal
measure: composite z-score
// no unit, no text: just the number

Solved entries:
[Q] Fill in composite z-score for record CC(C)OC(=O)CC(=O)CC(O)c1ccc([N+](=O)[O-])cc1 (stereo not given)
[A] 0.0033

[Q] Fill in composite z-score for record O=C1O[C@H](c2ccccc2)[C@H](c2ccccc2)N2[C@H]1[C@@H](C(=O)N1CCCCCCC1)[C@]1(C(=O)Nc3ccc(C#CC4(O)CCCCCC4)cc31)[C@H]2c1ccccc1OCCO
[A] 0.935

[Q] Fill in composite z-score for record CCN(CC)c1ccc(N2CC=CC34O[C@@H]5/C=C\CCC(C)OC(=O)C5[C@H]3C(=O)N(C(C)CO)[C@@H]4C2=O)cc1 (stereo not given in full)
[A] -0.116

[Q] Fill in composite z-score for record C=CCC(OC(C)=O)[C@@H]1[C@@H](N(Cc2ccc(-c3ccccc3)cc2)C(=O)Cc2ccc(F)cc2)c2cc(OCCCO)ccc2N1C(=O)Cc1ccc2ccccc2c1 (stereo not given in full)
[A] -0.0271

[Q] Fill in composite z-score for record COC(=O)[C@@]1(Cc2ccc(F)cc2)[C@H]2c3cc(C(=O)N(C)C)n(Cc4c(CO)[nH]cc(C)c4=O)c3C[C@H]2CN1C(=O)c1ccccc1
[A] 0.142

---
[Q] Fill in composite z-score for record CC=CC(O)C1C=CC2C(=O)NC(=O)C2N1Nc1ccccn1 (stereo not given)
[A] -0.151

[Q] Fill in composite z-score for record C=C(/C(=C/C[C@@H](OC(C)=O)c1ccc(CO)o1)c1cc(C(=O)OC)ccc1OC)C(C)C
[A] -0.076

[Q] Fill in composite z-score for record O=C1OCCC=C[C@H]2OC34C=CCN(c5ccc(Cl)cc5)C(=O)[C@H]3N(CCCCCCO)C(=O)[C@@H]4C12 (stereo not given in full)
[A] -0.116

[Q] Fill in composite z-score for record CC(=O)n1cc(C(O)C2C=CC3C(=O)N(c4ccccc4)C(=O)C3N2Nc2ccc(C(C)C)cc2)c2ccccc21 (stereo not given)
[A] 0.125

[Q] Fill in composite z-score for record CC(C)CNC(=O)[C@@]1(C)c2ccccc2C(=O)N(Cc2cc(C(F)(F)F)cc(C(F)(F)F)c2)[C@H]1c1ccc(CO)cc1
[A] -0.178

[Q] Fill in composite z-score for record O=C1C2C=CC(C(O)c3ccco3)N(Nc3ccccc3)C2C(=O)N1c1ccccc1 (stereo not given)
[A] -0.0767

[Q] Fill in composite z-score for record COC(=O)C(CC#Cc1ccc2c(c1)[C@]1(C(=O)N2)[C@H](c2ccc(O)cc2)N2[C@H](c3ccccc3)[C@H](c3ccccc3)OC(=O)[C@H]2[C@@H]1C(=O)N1CCCCCCC1)C(=O)OC
[A] 0.61

[Q] Fill in composite z-score for record C[C@]1(C(=O)O)c2ccccc2C(=O)N(Cc2ccc(OC(F)(F)F)cc2)[C@H]1c1ccc(CO)cc1
[A] -0.0442

[Q] Fill in composite z-score for record NCCCCCNC(=O)[C@@H]1C[C@@H]2C(=O)N3CCC[C@H]3C(=O)N2[C@@H]1c1ccc(O)cc1
[A] 0.0232

[Q] Fill in composite z-score for record CN1C(=O)[C@@H]2[C@@H](CC(COc3ccccc3)=C([C@H](O)CCc3ccccc3)[C@@H]2CO)C1=O
[A] -0.103

Sourced from PubChem BioAssay
